// pKi lookup, one value per entry
Measured Target: Sigma non-opioid intracellular receptor 1 (Mus musculus)
Sequence (O55242 whole entry): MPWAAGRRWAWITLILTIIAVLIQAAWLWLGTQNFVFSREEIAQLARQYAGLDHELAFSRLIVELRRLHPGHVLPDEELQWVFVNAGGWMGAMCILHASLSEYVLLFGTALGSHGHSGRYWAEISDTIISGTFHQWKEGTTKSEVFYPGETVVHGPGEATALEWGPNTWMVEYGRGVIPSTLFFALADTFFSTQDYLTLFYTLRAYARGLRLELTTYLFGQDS
Experiment Description: Displacement of 5-bromo-N-(4-(3,4-dihydro-6,7-dimethoxyisoquinolin-2(1H)-yl)butyl)-2,3-dimethoxybenzamide from sigma-1 receptor in mouse EMT6 cell membranes after 60 mins by Scatchard plot analysis
pKi: −log10 of the molar value.
Measurement Kind: pKi

>  <Mol>
COc1cc2c(cc1OC)CN(CCCCNC(=O)c1cc(C)ccc1OCCF)CC2

>  <Measurement Kind>
pKi

>  <Reading>
6.48

$$$$
>  <Mol>
COc1cc2c(cc1OC)CN(CCCCNC(=O)c1cc(I)ccc1OCCF)CC2

>  <Measurement Kind>
pKi

>  <Reading>
5.89

$$$$
>  <Mol>
COc1cc2c(cc1OC)CN(CCCCNC(=O)c1cc(C)ccc1OC)CC2

>  <Measurement Kind>
pKi

>  <Reading>
5.51

$$$$

====

Reported log10(Ki) values for a set of compounds
Experiment Description: Displacement of [3H]DTG from sigma-2 receptor in rat liver membrane homogenate after 2 hrs by liquid scintillation counting analysis in presence of pentazocine
Type: cell membranes
Measurement Kind: log10(Ki) (log10 of the value in nM)

>  <Mol>
COc1cccc(-n2cc(C(=O)NCCN3CCc4cc(OC)c(OC)cc4C3)nn2)c1

>  <log10(Ki)>
2.26

$$$$
>  <Mol>
COc1cccc(Cn2cc(C(=O)NCCCCN3CCc4cc(OC)c(OC)cc4C3)nn2)c1

>  <log10(Ki)>
1.03

$$$$
>  <Mol>
COc1cc2c(cc1OC)CN(CCCCNC(=O)c1cc(-n3cc(COCCOCCF)nn3)ccc1OC)CC2

>  <log10(Ki)>
1.82

$$$$
>  <Mol>
COc1cc2c(cc1OC)CN(CCCCNC(=O)c1c[nH]nn1)CC2

>  <log10(Ki)>
3.01

$$$$
>  <Mol>
COc1cccc(Cn2cc(-c3ccc(C(=O)NCCCCN4CCc5cc(OC)c(OC)cc5C4)cc3)nn2)c1

>  <log10(Ki)>
1.82

$$$$
>  <Mol>
COc1cc2c(cc1OC)CN(CCCCNC(=O)c1cn(-c3ccccc3OC)nn1)CC2

>  <log10(Ki)>
0.18

$$$$
>  <Mol>
COc1cc2c(cc1OC)CN(CCCCNC(=O)c1cn(Cc3ccc(OCCF)cc3)nn1)CC2

>  <log10(Ki)>
1.68

$$$$
>  <Mol>
COc1cc2c(cc1OC)CN(CCCCNC(=O)c1cn(Cc3ccc(O)cc3)nn1)CC2

>  <log10(Ki)>
1.06

$$$$
>  <Mol>
COc1cc2c(cc1OC)CN(CCCCNC(=O)c1ccc(-c3cn(CCF)nn3)cc1)CC2

>  <log10(Ki)>
2.14

$$$$
>  <Mol>
COc1cccc(Cn2cc(-c3cccc(C(=O)NCCCCN4CCc5cc(OC)c(OC)cc5C4)c3)nn2)c1

>  <log10(Ki)>
1.82

$$$$
>  <Mol>
COc1ccc(-n2cc(C(=O)NCCCCN3CCc4cc(OC)c(OC)cc4C3)nn2)cc1

>  <log10(Ki)>
0.74

$$$$
>  <Mol>
COc1cc2c(cc1OC)CN(CCCCNC(=O)c1cc(-n3cc(CN(C)C)nn3)ccc1OC)CC2

>  <log10(Ki)>
1.75

$$$$
>  <Mol>
COc1cc2c(cc1OC)CN(CCCCNC(=O)c1cn(Cc3cccc(O)c3)nn1)CC2

>  <log10(Ki)>
1.35

$$$$
>  <Mol>
COc1cccc(Cn2cc(C(=O)NCCN3CCc4cc(OC)c(OC)cc4C3)nn2)c1

>  <log10(Ki)>
2.33

$$$$
>  <Mol>
COc1cc2c(cc1OC)CN(CCCCNC(=O)c1cc(-n3cc(-c4cncn4C)nn3)ccc1OC)CC2

>  <log10(Ki)>
1.32

$$$$
>  <Mol>
COc1ccccc1Cn1cc(-c2ccc(C(=O)NCCCCN3CCc4cc(OC)c(OC)cc4C3)cc2)nn1

>  <log10(Ki)>
1.74

$$$$
>  <Mol>
COc1cc2c(cc1OC)CN(CCNC(=O)c1cn(-c3ccccc3OC)nn1)CC2

>  <log10(Ki)>
2.18

$$$$
>  <Mol>
COc1cc2c(cc1OC)CN(CCCCNC(=O)c1cn(-c3cccc(OCCF)c3)nn1)CC2

>  <log10(Ki)>
1.40

$$$$
>  <Mol>
COc1cc2c(cc1OC)CN(CCCCNC(=O)c1ccc(-c3cn(CCOCCOCCF)nn3)cc1)CC2

>  <log10(Ki)>
2.33

$$$$
